Examples of binders with documented koff follow.
# TARGET_SYSTEM: T1, full length recombinant human 2N4R tau (amino acids 1-441) (human, UniProt P10636 1-758)
# T1 construct: Bought (rPeptide); recombinant, non-phosphorylated; also called recombinant tau
# T1 sequence (P10636 other isoform, or with tags, fused parts or gaps limits assumed): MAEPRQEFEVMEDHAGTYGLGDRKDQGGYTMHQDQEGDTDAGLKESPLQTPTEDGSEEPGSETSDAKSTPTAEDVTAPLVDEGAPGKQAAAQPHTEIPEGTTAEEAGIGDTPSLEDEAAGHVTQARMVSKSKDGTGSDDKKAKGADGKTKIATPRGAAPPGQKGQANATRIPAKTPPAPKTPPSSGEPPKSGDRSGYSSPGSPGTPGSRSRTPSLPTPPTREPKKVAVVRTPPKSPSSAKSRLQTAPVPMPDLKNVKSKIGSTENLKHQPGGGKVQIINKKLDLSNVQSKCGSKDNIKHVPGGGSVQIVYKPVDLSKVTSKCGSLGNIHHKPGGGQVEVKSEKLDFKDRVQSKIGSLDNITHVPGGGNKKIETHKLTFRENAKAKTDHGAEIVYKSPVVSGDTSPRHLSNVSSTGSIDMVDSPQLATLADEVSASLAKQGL
# TEST_NAME: SPR Biacore SCK, IgG on Protein A, tau analyte
Give just the number in s⁻¹; leave the unit off.

These recorded examples may help you get a feel for the data.
BINDER	UNIT	koff
Clone #28 VH0VK0 chimeric human IgG1 (rabbit VH and VK of Clone 1) (antibody, V domains shown, also called VH0Vκ0; #28 VH0κ0) VH: QSLEESGGGLVKPGGTLTLTCTVSGFSLNNYDMSWVRQAPGKGLEWIGTVSTTYRRYYASWAKGRFTISKTSSTTVDLKMTSLTTEDTATYFCAASGIWGPGTLVTVSL VL: AQVLTQTTSPVSAAVGGTVTINCQSSQRVYSNYLAWYQQKPGQPPKRLIFLASTLESGVPSRFSGSGSGTQFTLTISDLECDDAATYYCAGTYTGSIWAFGGGTEVVVK	s⁻¹	0.00342
Clone 14 (VH1Vκ1), humanised variant of clone #28, human IgG1 (antibody, V domains shown, also called VH1VK1) VH: QSLQESGGGLVKPSETLSLTCTVSGFSLNNYDMSWVRQAPGKGLEWIGTVSTTYRRYYASWAKGRFTISKTSSTTVDLKMTSLTAEDTATYFCAASGIWGRGTLVTVSS VL: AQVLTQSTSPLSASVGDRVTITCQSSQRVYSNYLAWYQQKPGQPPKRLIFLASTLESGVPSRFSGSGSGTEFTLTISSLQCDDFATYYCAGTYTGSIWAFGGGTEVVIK	s⁻¹	0.00308

What does the record list as koff for Clone 16 (VH1Vκ4), humanised variant of clone #28, human IgG1 (antibody, V domains shown, also called VH1VK4) VH: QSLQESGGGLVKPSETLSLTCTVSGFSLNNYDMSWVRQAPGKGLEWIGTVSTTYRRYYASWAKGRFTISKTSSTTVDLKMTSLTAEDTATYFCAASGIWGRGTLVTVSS VL: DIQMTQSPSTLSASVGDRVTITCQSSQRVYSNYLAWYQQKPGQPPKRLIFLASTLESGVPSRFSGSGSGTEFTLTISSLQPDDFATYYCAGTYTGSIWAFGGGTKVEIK ?
0.00207

Param item: Clone 15 (VH1Vκ2), humanised variant of clone #28, human IgG1 (antibody, V domains shown, also called VH1VK2) VH: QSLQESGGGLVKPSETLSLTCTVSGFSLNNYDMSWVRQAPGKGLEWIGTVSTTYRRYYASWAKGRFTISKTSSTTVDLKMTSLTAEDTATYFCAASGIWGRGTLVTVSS VL: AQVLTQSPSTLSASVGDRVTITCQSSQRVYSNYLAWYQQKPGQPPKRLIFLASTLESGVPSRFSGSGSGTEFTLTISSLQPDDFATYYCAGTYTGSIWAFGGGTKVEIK
0.00294

Param item: Clone 29 (VH4Vκ5), humanised variant of clone #28, human IgG1 (antibody, V domains shown, also called VH4VK5) VH: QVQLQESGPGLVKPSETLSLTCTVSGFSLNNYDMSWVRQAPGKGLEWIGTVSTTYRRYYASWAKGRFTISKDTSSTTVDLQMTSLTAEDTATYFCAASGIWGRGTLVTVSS VL: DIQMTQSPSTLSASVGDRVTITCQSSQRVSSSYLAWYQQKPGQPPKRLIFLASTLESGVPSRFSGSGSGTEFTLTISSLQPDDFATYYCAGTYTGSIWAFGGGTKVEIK
0.00409

Param item: Clone 24 (VH3Vκ4), humanised variant of clone #28, human IgG1 (antibody, V domains shown, also called VH3VK4; VH3Vk4) VH: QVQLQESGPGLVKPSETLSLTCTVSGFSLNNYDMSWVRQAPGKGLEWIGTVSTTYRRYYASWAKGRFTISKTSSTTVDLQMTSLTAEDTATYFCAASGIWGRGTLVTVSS VL: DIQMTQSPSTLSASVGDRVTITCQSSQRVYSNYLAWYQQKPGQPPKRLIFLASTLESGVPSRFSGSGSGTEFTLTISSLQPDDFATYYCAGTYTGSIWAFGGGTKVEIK
0.00146

Param item: Clone 34 (VH6Vκ1), humanised variant of clone #28, human IgG1 (antibody, V domains shown, also called VH6VK1) VH: QVQLQESGPGLVKPSETLSLTCTVSGFSLNNYDMSWVRQAPGKGLEWIGTVSTTYRRYYADSVKGRFTISRDNSKNTLDLQMTSLTAEDTATYFCAASGIWGRGTLVTVSS VL: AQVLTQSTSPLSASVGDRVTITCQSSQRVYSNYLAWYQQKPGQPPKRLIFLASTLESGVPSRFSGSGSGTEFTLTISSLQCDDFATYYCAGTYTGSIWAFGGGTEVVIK
0.00525
